Values compiled from patent US10350271B2.

- study.system: human PrRP receptor GPR10 (Homo sapiens)
- Construct: host or cells: CHO cells
- Sequence (P49683 1-370): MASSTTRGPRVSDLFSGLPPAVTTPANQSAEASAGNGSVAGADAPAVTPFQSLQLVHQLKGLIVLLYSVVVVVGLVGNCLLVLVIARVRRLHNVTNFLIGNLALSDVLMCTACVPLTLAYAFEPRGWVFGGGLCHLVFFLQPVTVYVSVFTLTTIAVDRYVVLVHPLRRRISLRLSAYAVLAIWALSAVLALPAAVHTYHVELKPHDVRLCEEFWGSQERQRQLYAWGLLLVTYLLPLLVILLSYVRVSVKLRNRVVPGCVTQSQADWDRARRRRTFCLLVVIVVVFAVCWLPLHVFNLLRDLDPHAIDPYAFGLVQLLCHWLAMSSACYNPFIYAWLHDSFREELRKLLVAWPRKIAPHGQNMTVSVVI
- assay.summary: Competitive binding in CHO cells transfected with human GPR10 (human 125I-PrRP31)
pKi: −log10 of the molar value. Ends that are not written are not given here.
quantity.measured: pKi

INSERT INTO measurements (substance, readout_number) VALUES
  ('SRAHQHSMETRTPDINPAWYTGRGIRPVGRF-NH2 [Rat PrRP31, reference compound]', 8.41);

###

- study.system: human PrRP receptor GPR10 (Homo sapiens)
- Construct: host or cells: CHO cells
- assay.summary: Competitive binding in CHO cells transfected with human GPR10 (human 125I-PrRP31)
- run.parameters: affinity relative to PrRP31
Ends that are not written are not given here.
Below is a list of entries, each paired with its recorded % of PrRP31, GPR10 human receptor transfected in CHO cells value.
quantity.measured: % of PrRP31, GPR10 human receptor transfected in CHO cells (%)

INSERT INTO measurements (substance, unit_symbol, readout_number) VALUES
  ('TPDINPAWYASRPFRPVGRF-NH2 [Analog 33]', '%', 225),
  ('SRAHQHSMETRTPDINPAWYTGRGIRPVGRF-NH2 [Rat PrRP31, reference compound]', '%', 100),
  ('TPDINPAWYTGRGARPFGRF-NH2 [Analog 31]', '%', 0.7),
  ('TPDINPAWYTGRGIRPVGRF-NH2 [Rat PrRP20, reference compound]', '%', 70),
  ('QHSMETRTPDINPAWYTGRGIRPVGRF-NH2 [Analog 37]', '%', 66);

###

- study.system: human PrRP receptor GPR10 (Homo sapiens)
- Construct: host or cells: CHO cells
- Sequence (P49683 1-370): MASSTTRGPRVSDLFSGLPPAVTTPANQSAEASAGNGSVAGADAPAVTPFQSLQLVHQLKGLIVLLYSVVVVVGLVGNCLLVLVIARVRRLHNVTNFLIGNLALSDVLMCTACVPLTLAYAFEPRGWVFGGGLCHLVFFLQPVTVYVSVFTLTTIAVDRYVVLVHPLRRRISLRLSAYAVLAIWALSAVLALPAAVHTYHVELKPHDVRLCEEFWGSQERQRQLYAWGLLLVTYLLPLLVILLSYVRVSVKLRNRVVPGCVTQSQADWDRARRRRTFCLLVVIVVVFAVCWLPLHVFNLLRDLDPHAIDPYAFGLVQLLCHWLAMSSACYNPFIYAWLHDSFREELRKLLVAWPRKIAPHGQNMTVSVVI
- assay.summary: Competitive binding in CHO cells transfected with human GPR10 (human 125I-PrRP31)
- run.parameters: CHO cells, human 125I-PrRP31; read-out: Ki, GPR10 human receptor transfected in CHO cells
Ends that are not written are not given here.
quantity.measured: Ki (nM)

INSERT INTO measurements (substance, quantity_measured, unit_symbol, readout_number) VALUES
  ('TPDINPAWYTGRGIRPVGRF-NH2 [Rat PrRP20, reference compound]', 'Ki', 'nM', 5.56);
